system: UO-31 renal; experiment: NCI tumour cell line growth inhibition, 48 h
Tick 1 (yes) if TGI is 9 µM or greater. Tick 0 (no) if TGI is less than 9 µM.

Compound: CSc1nc(-c2ccccc2)nc(=[N+]2CCOCC2)s1
Qualitative Label: 1 (yes)
//
Compound: Oc1ccc(O)c(-n2cccn2)c1-n1cccn1
Qualitative Label: 1 (yes)
//
Compound: OCC(S)CS.[Bi] (stereo not given)
Qualitative Label: 1 (yes)
//
Compound: COc1ccc(S(=O)(=O)Nc2cc(Sc3cccc4cccnc34)c(O)c3ccccc23)cc1
Qualitative Label: 0 (no)
//
Compound: CCCCCCCCc1cc(O)ccc1O
Qualitative Label: 1 (yes)
//
Compound: C[C@H]1CC[C@@H]2[C@@H](C)[C@H]3[C@H](C[C@H]4[C@@H]5CC=C6C[C@@H](O)CC[C@]6(C)[C@H]5CC[C@]34C)N2C1
Qualitative Label: 1 (yes)
//
Compound: COc1cc2c(=O)n(CC3CCCCC3)c3c4cc[nH]c4ncc3c2cc1OC
Qualitative Label: 1 (yes)
//
Compound: COC(=O)C(/C(=N\O)C(=O)Nc1ccc(Br)cc1)c1nc2ccccc2[nH]c1=O (stereo not given)
Qualitative Label: 1 (yes)
//
Compound: C=CCCC(=O)CC(=O)OCc1ccccc1
Qualitative Label: 1 (yes)
//
Compound: CC(C)(C)CC(C)(C)NCC(O)COc1ccc(C(C)(C)c2ccc(OCC(O)CNC(C)(C)CC(C)(C)C)cc2)cc1 (stereo not given)
Qualitative Label: 0 (no)
